# System: KRAS-mutant PDC complex spheroid viability
# test protocol: Anticancer human tumor 186277-243-T-J2-PDC patient-derived colon adenocarcinoma cell line growth inhibition [KRAS2]
# condition label: second compound 0.316 µM; first compound 0.000316 µM; hits give low values
Kindly supply the reported viability, T/C values for the records listed here.
Answers are plain numbers, in %.

CC(C)n1nc(-c2ccc3oc(N)nc3c2)c2c(N)ncnc21 + CC1OCC2(CCN(c3cnc(Sc4ccnc(N)c4Cl)c(N)n3)CC2)C1N | 113
CC(C)n1nc(-c2ccc3oc(N)nc3c2)c2c(N)ncnc21 + C=CC(=O)N1CCN(c2nc(OCC3CCCN3C)nc3c2CCN(c2cccc4cccc(C)c24)C3)CC1CC#N | 106
CN(C)C/C=C/C(=O)Nc1cc2c(Nc3ccc(F)c(Cl)c3)ncnc2cc1O[C@H]1CCOC1 + CNCc1ccccc1-c1csc(C(C)Nc2nc(C)nc3cc(OC)c(OC)cc23)c1 | 110
CC(=O)Nc1cccc(-n2c(=O)n(C3CC3)c(=O)c3c(Nc4ccc(I)cc4F)n(C)c(=O)c(C)c32)c1 + C=CC(=O)N1CCN(c2nc(=O)n(-c3c(C)ccnc3C(C)C)c3nc(-c4c(O)cccc4F)c(F)cc23)C(C)C1 | 99.7

KRAS-mutant PDC complex spheroid viability / viability, T/C / CN(C)C/C=C/C(=O)Nc1cc2c(Nc3ccc(F)c(Cl)c3)ncnc2cc1O[C@H]1CCOC1 + C=CC(=O)N1CCN(c2nc(=O)n(-c3c(C)ccnc3C(C)C)c3nc(-c4c(O)cccc4F)c(F)cc23)C(C)C1 : value?
95.8

----------
# System: KRAS-mutant PDC complex spheroid viability
# test protocol: Anticancer human tumor 186277-243-T-J2-PDC cell line growth inhibition [KRAS2];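 note: viability read after seven days of compound exposure; 100% = DMSO vehicle-treated spheroids so lower means less viable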
# condition label: second compound 0.316 µM; first compound 10 µM; hits give low values
Entries whose viability, T/C is below 10% take t; entries at or above 10% take f.

CCNC(=O)CC1N=C(c2ccc(Cl)cc2)c2cc(OC)ccc2-n2c(C)nnc21 (stereo not given) + C=CC(=O)N1CCN(c2nc(=O)n(-c3c(C)ccnc3C(C)C)c3nc(-c4c(O)cccc4F)c(F)cc23)C(C)C1 | f
CC1(C)CCC(CN2CCN(c3ccc(C(=O)NS(=O)(=O)c4ccc(NCC5CCOCC5)c([N+](=O)[O-])c4)c(Oc4cnc5[nH]ccc5c4)c3)CC2)=C(c2ccc(Cl)cc2)C1 + C=CC(=O)N1CCN(c2nc(=O)n(-c3c(C)ccnc3C(C)C)c3nc(-c4c(O)cccc4F)c(F)cc23)C(C)C1 | t
Cn1nccc1Nc1nccc(-c2cc3c(s2)C(C)(C)N(CCN2CCOCC2)C3=O)n1 + COc1cc2nc(C)nc(NC(C)c3cc(N)cc(C(F)(F)F)c3)c2cc1OC1CCOC1 | t
COC(=O)c1ccc2c(C(=Nc3ccc(N(C)C(=O)CN4CCN(C)CC4)cc3)c3ccccc3)c(O)[nH]c2c1 + COc1cc2nc(C)nc(NC(C)c3cc(N)cc(C(F)(F)F)c3)c2cc1OC1CCOC1 | f

Now consider a different compound.
Determine if CC(C)NCC(C(=O)N1CCN(c2ncnc3c2C(C)CC3O)CC1)c1ccc(Cl)cc1 (stereo not given) + CNCc1ccccc1-c1csc(C(C)Nc2nc(C)nc3cc(OC)c(OC)cc23)c1 shows viability, T/C strictly lower than 10%.
f
